Literature compilation of Ki measurements on Alpha-1B adrenergic receptor (Homo sapiens, UniProt P35368).
Sequence (P35368 whole entry): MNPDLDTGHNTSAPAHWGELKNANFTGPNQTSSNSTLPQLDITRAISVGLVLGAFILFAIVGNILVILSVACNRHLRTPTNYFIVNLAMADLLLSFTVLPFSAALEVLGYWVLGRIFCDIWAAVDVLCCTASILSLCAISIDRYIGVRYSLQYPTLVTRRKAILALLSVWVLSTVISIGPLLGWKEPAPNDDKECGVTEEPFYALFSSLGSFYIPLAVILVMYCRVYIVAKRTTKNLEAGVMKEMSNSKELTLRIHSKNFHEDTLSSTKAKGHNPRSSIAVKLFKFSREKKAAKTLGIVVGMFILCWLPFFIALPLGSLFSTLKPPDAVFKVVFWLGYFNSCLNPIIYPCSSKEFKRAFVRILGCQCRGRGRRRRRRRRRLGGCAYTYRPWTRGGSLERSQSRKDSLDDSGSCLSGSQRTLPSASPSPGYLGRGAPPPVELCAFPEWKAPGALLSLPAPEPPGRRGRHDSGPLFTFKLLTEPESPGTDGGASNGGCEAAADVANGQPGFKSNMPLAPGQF
Ki strictly under 40 nM means TRUE; at 40 nM or over means FALSE.

| molecule | classAssignment |
| --- | --- |
| COc1ccccc1N1CCN(CCn2c(=O)[nH]c3sc(C)c(-c4ccccc4)c3c2=O)CC1 | TRUE |

// query Please indicate whether the reported Ki of "Cc1ccc2c(OCCN3CCC(Cc4cc5c(cc4F)OCC(=O)N5)CC3)cc(F)cc2n1" is strictly below 40 nM.
// result FALSE

// query Answer whether the molecule c1ccc(OCCNCC[C@H]2CO[C@H](C(c3ccccc3)c3ccccc3)O2)cc1 (relative stereo) has Ki strictly less than 40 nM
// result FALSE

// query Does this molecule meet the criterion Ki < 40 nM? "COc1cc2nc(N3CCC[C@@H](NC(=O)c4ccco4)C3)nc(N)c2cc1OC"
// result FALSE

// query Would you kindly verify if Ki of "CC(C)Oc1ccccc1N1CCN(CCOC(=O)CN2CCCCC2=O)CC1" is strictly less than 40 nM?
// result FALSE

// query I'd appreciate it if you could check whether "CC(C)Oc1ccccc1N1CCN(Cc2cc(CN3CCCCC3=O)n(C)n2)CC1" has Ki smaller than 40 nM.
// result FALSE

// query Take the molecule "CCOc1ccccc1OCCNCCOc1ccccc1OCc1ccccc1" and say whether its Ki is less than 40 nM.
// result TRUE

// query Does this molecule meet the criterion Ki < 40 nM? "COc1ccccc1N1CCN(CCn2c(=O)[nH]c3sc(-c4ccccc4)cc3c2=O)CC1"
// result TRUE

// query Quick check: Ki of "CNc1cc(-c2csc(N(C)C(=O)c3ccc(F)cc3)n2)ncn1" under 40 nM?
// result FALSE

// query Below 40 nM on Ki? Entry "COc1cc2nc(N3CCN(C(=O)c4ccco4)[C@@H]4CCCC[C@@H]43)nc(N)c2cc1OC"
// result TRUE

// query State whether 40 nM exceeds Ki recorded for "CC(C)Oc1ccccc1N1CCN(CC(=O)CC(=O)CN2CCCCC2=O)CC1" .
// result FALSE
